- testedSystem: 14-3-3 zeta (Homo sapiens, UniProt P63104)
- Construct: made in house; host or cells: E. coli DH5α (vector pGEX-KT)
- Sequence (P63104 whole entry): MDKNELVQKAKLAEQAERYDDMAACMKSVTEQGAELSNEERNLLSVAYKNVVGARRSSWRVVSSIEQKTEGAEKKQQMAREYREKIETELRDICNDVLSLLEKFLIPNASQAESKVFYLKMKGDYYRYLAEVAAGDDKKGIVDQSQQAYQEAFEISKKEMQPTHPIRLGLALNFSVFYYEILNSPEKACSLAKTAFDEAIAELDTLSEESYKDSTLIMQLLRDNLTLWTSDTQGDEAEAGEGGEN
- measurementProtocol: SPR competitive inhibition of 14-3-3 zeta binding to chip-coupled phosphorylated Raf-259 peptide
- setupConditions: 14-3-3 zeta 0.5-1.0 μM; competitor 1-50 μM; relative affinity only
Where a SMILES comes first, the peptide text is derived from it. [ ]: non-standard residue; d: D form. pS = N[C@@H](COP(=O)(O)O)C(=O)O
measuredAttribute: IC50 (µM)
Numeric only. Scale: µM

Q: Reported IC50 for CC(C)C[C@H](N)C(=O)N[C@@H](CO)C(=O)N[C@@H](CCC(N)=O)C(=O)N[C@@H](C)C(=O)N[C@@H](CCCNC(=N)N)C(=O)N[C@@H](CCC(N)=O)C(=O)N[C@@H](CO)C(=O)N[C@H](C(=O)N[C@@H](COP(=O)(O)O)C(=O)N[C@H](C(=O)N1CCC[C@H]1C(=O)N[C@@H](CC(N)=O)C(=O)N[C@H](C(=O)N[C@@H](Cc1c[nH]cn1)C(=O)N[C@@H](C)C(=O)O)C(C)C)[C@@H](C)O)[C@@H](C)O [Peptide R-4] (H-LSQARQST[pS]TPNVHA-OH) : what is it?
A: 11
